- System: Human alphaherpesvirus 2
- ASSAY: Antiviral activity against Herpes simplex virus G infected in HEL cells assessed as inhibition of virus-induced cytopathicity
- Type: functional, organism-based, strain G
- TEST_CONTEXT: Human alphaherpesvirus 2, strain G, HEL
READOUT_TYPE: log10(EC50) (log10 of the value in nM)
Hello, just confirming the data are log10 of EC50 with units of nM.

Field request: log10(EC50) | item: C[C@H](NP(=O)(COCCn1cnc2c(N)ncnc21)Oc1ccccc1)C(=O)OCC(C)(C)C (stereo not given in full) 2.18

Requested read-out: log10(EC50). Entry: C[C@H](Cn1cnc2c(N)ncnc21)OCP(=O)(N[C@@H](C)C(=O)OCC(C)(C)C)Oc1cccc2ccccc12 (stereo in doubt; 15) 2.85

Item under review: C[C@H](Cn1cnc2c(N)ncnc21)OCP(=O)(N[C@@H](C)C(=O)OCc1ccccc1)Oc1cccc2ccccc12 (stereo not given in full) . Reported log10(EC50)? 2.85

# input compound: C[C@H](Cn1cnc2c(N)ncnc21)OCP(=O)(N[C@@H](C)C(=O)OCC(C)(C)C)N[C@@H](C)C(=O)OCC(C)(C)C ; wanted: its log10(EC50) 2.85

Value lookup for log10(EC50); key = C[C@H](Cn1cnc2c(N)ncnc21)OCP(=O)(N[C@@H](C)C(=O)OCC(C)(C)C)Oc1ccccc1 (stereo not given in full) 2.85

Using the record for C[C@H](NP(=O)(COCCn1cnc2c(N)ncnc21)N[C@@H](C)C(=O)OCC(C)(C)C)C(=O)OCC(C)(C)C , report its log10(EC50). 2.30

Request the reported log10(EC50) associated with C[C@H](NP(=O)(COCCn1cnc2c(N)ncnc21)Oc1cccc2ccccc12)C(=O)OCc1ccccc1 (stereo not given in full) 0.90

Reported log10(EC50), compound C[C@H](NP(=O)(COCCn1cnc2c(N)ncnc21)Oc1cccc2c1CCCC2)C(=O)OCC(C)(C)C (stereo not given in full) : ____ 1.70

Field request: log10(EC50) | item: C[C@H](NP(=O)(COCCn1cnc2c(N)ncnc21)Oc1cccc2ccccc12)C(=O)OCC(C)(C)C (stereo not given in full) 2.00

Need log10(EC50) of C[C@H](NP(=O)(COCCn1cnc2c(N)ncnc21)N[C@@H](C)C(=O)OCc1ccccc1)C(=O)OCc1ccccc1 , thanks. 2.40

###

- ASSAY: Cytotoxicity against HEL cells assessed as change in cellular morphology by microscopic analysis
- Type: cell-based
- TEST_CONTEXT: human, read-out: MIC
Please go through the items and note down their MCC.

Request the reported MCC associated with C[C@H](Cn1cnc2c(N)ncnc21)OCP(=O)(N[C@@H](C)C(=O)OCC(C)(C)C)Oc1cccc2ccccc12 (stereo in doubt; 15) > 100 µM

GET /values?readout=MCC&item= Nc1ncnc2c1ncn2CCOCP(=O)(O)O > 100 µM

I'd like to know its MCC. The compound in question is C[C@H](Cn1cnc2c(N)ncnc21)OCP(=O)(N[C@@H](C)C(=O)OCC(C)(C)C)Oc1cccc2c1CCCC2 (stereo partly specified) > 100 µM

Please report the recorded MCC for C[C@H](NP(=O)(COCCn1cnc2c(N)ncnc21)Oc1cccc2c1CCCC2)C(=O)OCC(C)(C)C (stereo partly specified) . > 100 µM

// MCC lookup, key: C[C@H](Cn1cnc2c(N)ncnc21)OCP(=O)(N[C@@H](C)C(=O)OCC(C)(C)C)Oc1ccccc1 (stereo partly specified) > 100 µM

Using the record for C[C@H](Cn1cnc2c(N)ncnc21)OCP(=O)(N[C@@H](C)C(=O)OCc1ccccc1)N[C@@H](C)C(=O)OCc1ccccc1 , report its MCC. > 100 µM
